# credit: ChEMBL document CHEMBL4196192

Target: 1-deoxy-D-xylulose 5-phosphate reductoisomerase, apicoplastic (Plasmodium falciparum (isolate 3D7), UniProt Q8IKG4)
Sequence (Q8IKG4 whole entry): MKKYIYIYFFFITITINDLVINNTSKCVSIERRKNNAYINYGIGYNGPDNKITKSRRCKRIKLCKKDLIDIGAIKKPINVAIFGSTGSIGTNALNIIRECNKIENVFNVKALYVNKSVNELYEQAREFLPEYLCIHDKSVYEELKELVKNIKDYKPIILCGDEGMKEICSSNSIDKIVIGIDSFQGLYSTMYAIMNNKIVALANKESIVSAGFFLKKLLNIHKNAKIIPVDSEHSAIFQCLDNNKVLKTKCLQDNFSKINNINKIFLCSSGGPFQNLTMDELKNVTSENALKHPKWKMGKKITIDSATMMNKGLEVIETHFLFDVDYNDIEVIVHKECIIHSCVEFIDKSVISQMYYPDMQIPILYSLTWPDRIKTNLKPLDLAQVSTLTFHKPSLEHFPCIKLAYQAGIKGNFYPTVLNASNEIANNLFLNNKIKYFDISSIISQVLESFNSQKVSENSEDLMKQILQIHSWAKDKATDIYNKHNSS
Assay: Inhibition of Plasmodium falciparum DXR
readout label: pIC50
Numbers only, as −log10 of the molar value.

Recorded pIC50 (compound `CC(=O)N(O)CCCP(=O)(O)O` ): 7.62

---

Tested on: Plasmodium falciparum
Experiment: Growth inhibition of Plasmodium falciparum 3D7 asynchronous cultures by PicoGreen dye based assay
Format: functional, organism-based
readout label: IC50 (µM)
Give bare numbers, in µM.

Reference set (5 entries):
- chem smiles: "CC(=O)N(C/C=C/P(=O)(O)O)OCc1ccc(-c2ccccc2)cc1"
  recorded value: 2.3
- chem smiles: "CC(=O)N(C/C=C/P(=O)(OCOC(=O)C(C)(C)C)OCOC(=O)C(C)(C)C)OCc1ccc(-c2ccccc2)cc1"
  recorded value: 44.1
- chem smiles: "C[C@@H]1CC[C@H]2[C@@H](C)C(=O)O[C@@H]3O[C@@]4(C)CC[C@@H]1[C@]32OO4"
  recorded value: 0.0104
- chem smiles: "CC(C)(C)C(=O)OCOP(=O)(/C=C/CN(O)C(=O)C(F)(F)F)OCOC(=O)C(C)(C)C"
  recorded value: 14.3
- chem smiles: "CC(=O)N(C/C=C/P(=O)(OCOC(=O)C(C)(C)C)OCOC(=O)C(C)(C)C)OCc1ccc2ccccc2c1"
  recorded value: 50.5

Recorded IC50 (compound `COC(=O)N(O)C/C=C/P(=O)(O)O` ): 28.6
